system: panel of cancer cell lines; test: SRB assay, panel of cancer cell lines and normal fibroblast line; type: cell-based, human; conditions: Homo sapiens, Fibroblast, 96 h exposure, read-out: IC50 values across the cell line panel
pIC50: −log10 of the molar value.

{"COMPOUND STRING": "CN1CCN(CCCNc2cc3c4c(c(NCCCN5CCN(C)CC5)cc5c4c2C(=O)N(Cc2ccco2)C5=O)C(=O)N(Cc2ccco2)C3=O)CC1", "pIC50": "5.10 to 6.00"}
{"COMPOUND STRING": "CN1CCN(CCCNc2cc3c4c(c(NCCCN5CCN(C)CC5)cc5c4c2C(=O)N(CC2CCOCC2)C5=O)C(=O)N(CC2CCOCC2)C3=O)CC1", "pIC50": "5.10 to 6.00"}
{"COMPOUND STRING": "COCCCN1C(=O)c2cc(NCCCN3CCN(C)CC3)c3c4c(cc(NCCCN5CCN(C)CC5)c(c24)C1=O)C(=O)N(CCCOC)C3=O", "pIC50": "5.10 to 6.00"}

====

test system: WI38 normal human fibroblast cells; assay: SRB growth inhibition assay, 96 hr exposure, WI38; format: cell-based
pIC50: −log10 of the molar value.

{"COMPOUND": "CN1CCN(CCCN2C(=O)c3cc(NCC4CCOCC4)c4c5c(cc(NCC6CCOCC6)c(c35)C2=O)C(=O)N(CCCN2CCN(C)CC2)C4=O)CC1 [SKM052]", "QUALIFIER SYMBOL": "=", "pIC50": 5.55}
{"COMPOUND": "CN1CCN(CCCN2C(=O)c3cc(NCC4CCCO4)c4c5c(cc(NCC6CCCO6)c(c35)C2=O)C(=O)N(CCCN2CCN(C)CC2)C4=O)CC1 (racemic) [SKM038]", "QUALIFIER SYMBOL": "=", "pIC50": 5.64}
{"COMPOUND": "COCCCNc1cc2c3c(c(NCCCOC)cc4c3c1C(=O)N(CCCN1CCN(C)CC1)C4=O)C(=O)N(CCCN1CCN(C)CC1)C2=O [SKM022]", "QUALIFIER SYMBOL": "<", "pIC50": 4.60}
{"COMPOUND": "CN1CCN(CCCN2C(=O)c3cc(NCCCN4CCOCC4)c4c5c(cc(NCCCN6CCOCC6)c(c35)C2=O)C(=O)N(CCCN2CCN(C)CC2)C4=O)CC1 [SKM029]", "QUALIFIER SYMBOL": "=", "pIC50": 6.52}
{"COMPOUND": "CN1CCN(CCN2C(=O)c3cc(NCCCN4CCOCC4)c4c5c(cc(NCCCN6CCOCC6)c(c35)C2=O)C(=O)N(CCN2CCN(C)CC2)C4=O)CC1 [SKM036]", "QUALIFIER SYMBOL": "=", "pIC50": 6.74}

====

Recorded change in melting temperature Hsp90A 1 uM, one value per entry.
system: HSP90a promoter quadruplex sequence; experiment: FRET melting assay, Hsp90A quadruplex; type: binding; settings: 1 uM ligand
OUTCOME MEASURE: change in melting temperature Hsp90A 1 uM

{"COMPOUND": "CN1CCN(CCN2C(=O)c3cc(NCCCN4CCOCC4)c4c5c(cc(NCCCN6CCOCC6)c(c35)C2=O)C(=O)N(CCN2CCN(C)CC2)C4=O)CC1 [SKM036]", "QUALIFIER SYMBOL": "=", "OBSERVED": 33}
{"COMPOUND": "CN1CCN(CCCNc2cc3c4c(c(NCCCN5CCN(C)CC5)cc5c4c2C(=O)N(CC2CCOCC2)C5=O)C(=O)N(CC2CCOCC2)C3=O)CC1 [MM33]", "QUALIFIER SYMBOL": "<", "OBSERVED": 2}
{"COMPOUND": "COCCCNc1cc2c3c(c(NCCCOC)cc4c3c1C(=O)N(CCCN1CCN(C)CC1)C4=O)C(=O)N(CCCN1CCN(C)CC1)C2=O [SKM022]", "QUALIFIER SYMBOL": "=", "OBSERVED": 22}
{"COMPOUND": "CN1CCN(CCCNc2cc3c4c(c(NCCCN5CCN(C)CC5)cc5c4c2C(=O)N(CCN2CCOCC2)C5=O)C(=O)N(CCN2CCOCC2)C3=O)CC1 [MM45]", "QUALIFIER SYMBOL": "=", "OBSERVED": 34}
{"COMPOUND": "CN1CCN(CCCNc2cc3c4c(c(NCCCN5CCN(C)CC5)cc5c4c2C(=O)N(CCCN2CCOCC2)C5=O)C(=O)N(CCCN2CCOCC2)C3=O)CC1 [MM41]", "QUALIFIER SYMBOL": "=", "OBSERVED": 33}
{"COMPOUND": "CN1CCN(CCCN2C(=O)c3cc(NCC4CCOCC4)c4c5c(cc(NCC6CCOCC6)c(c35)C2=O)C(=O)N(CCCN2CCN(C)CC2)C4=O)CC1 [SKM052]", "QUALIFIER SYMBOL": "=", "OBSERVED": 2}
{"COMPOUND": "COCCCN1C(=O)c2cc(NCCCN3CCN(C)CC3)c3c4c(cc(NCCCN5CCN(C)CC5)c(c24)C1=O)C(=O)N(CCCOC)C3=O [MM43]", "QUALIFIER SYMBOL": "=", "OBSERVED": 29}
{"COMPOUND": "CN1CCN(CCNc2cc3c4c(c(NCCN5CCN(C)CC5)cc5c4c2C(=O)N(CCCN2CCOCC2)C5=O)C(=O)N(CCCN2CCOCC2)C3=O)CC1 [MM47]", "QUALIFIER SYMBOL": "=", "OBSERVED": 32}
